From: the supplement of paper PMC10567573

protein stability index listing for selected variants.
B1: RSPH3 (parent)
chain: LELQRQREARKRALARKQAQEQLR

Variants of: B1
assayOverview: protein stability index of a GFP-peptide fusion (GPS, HEK-293T) (PSI 1-6); higher = more stable;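 also: lentivirally expressed fusions sorted by FACS into six bins by GFP to DsRed ratio, PSI derived from sequencing read proportions per bin multiplied by bin number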
testParameters: c terminus: a fixed tail appended

- var: "L3R"
  protein stability index: 3.54
- var: "A19I"
  protein stability index: 3.55
- var: "R12E"
  protein stability index: 4.71
- var: "Q20R"
  protein stability index: 3.79
- var: "L23Q"
  protein stability index: 4.35
- var: "E21A"
  protein stability index: 2.72
- var: "L14Q"
  protein stability index: 4.53
- var: "R7A"
  protein stability index: 3.61
